Source: the supplement of paper PMC9233669

# System: biotinyl-Trp-oxazolone
# run description: self-aminoacylation, catalytic enhancement (BWO) (fold over background); higher = more active; k-Seq, kA / k0A0; sequences stand for … in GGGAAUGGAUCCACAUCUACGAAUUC…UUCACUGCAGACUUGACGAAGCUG
Fewer inactive variants are shown than the library holds.
quantity name: self-aminoacylation

[
  {
    "macromolecule sequence": "CCACACUUAAUGCAAUCGGUC [Fam1B.1 aminoacylation ribozyme variant]",
    "measured": 0.642
  },
  {
    "macromolecule sequence": "AAUUUUGCUAACAGUCGCAAG [Fam3.1 aminoacylation ribozyme variant]",
    "measured": 1.88
  },
  {
    "macromolecule sequence": "AGACUUCAAACAAUCGGUCUG [Fam1A.1 aminoacylation ribozyme variant]",
    "measured": 48.1
  }
]

====

Measured self-aminoacylation by item
# Tested on: biotinyl-Leu-oxazolone
# run description: self-aminoacylation, catalytic enhancement (BLO) (fold over background); higher = more active; k-Seq, kA / k0A0; sequences stand for … in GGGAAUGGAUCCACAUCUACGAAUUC…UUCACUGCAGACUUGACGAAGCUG
Fewer inactive variants are shown than the library holds.
quantity name: self-aminoacylation

[
  {
    "macromolecule sequence": "CCACGUUUCAAGCAAUCGGUC [Fam1B.1 aminoacylation ribozyme variant]",
    "quantity name": "self-aminoacylation",
    "measured": 3.36
  },
  {
    "macromolecule sequence": "CCACCCUUCAAGGAAUCGGUC [Fam1B.1 aminoacylation ribozyme variant]",
    "quantity name": "self-aminoacylation",
    "measured": 1.27
  },
  {
    "macromolecule sequence": "AUUCACCUAGGUCAUCGGGCU [Fam2.2 aminoacylation ribozyme variant]",
    "quantity name": "self-aminoacylation",
    "measured": 12.4
  },
  {
    "macromolecule sequence": "AUUAACCUAGGUCAUCGAGUG [Fam2.2 aminoacylation ribozyme variant]",
    "quantity name": "self-aminoacylation",
    "measured": 11.7
  },
  {
    "macromolecule sequence": "AAGUUUUCUGAUAGUCGCAAG [Fam3.1 aminoacylation ribozyme variant]",
    "quantity name": "self-aminoacylation",
    "measured": 1.55
  },
  {
    "macromolecule sequence": "AUUCACCCAGGUCAUCGGGCG [Fam2.2 aminoacylation ribozyme variant]",
    "quantity name": "self-aminoacylation",
    "measured": 4.5
  },
  {
    "macromolecule sequence": "CAGUUUGCUAAUAAUCGCAAG [Fam3.1 aminoacylation ribozyme variant]",
    "quantity name": "self-aminoacylation",
    "measured": 0.99
  }
]

====

# Tested on: biotinyl-Val-oxazolone
# run description: self-aminoacylation, catalytic enhancement (BVO) (fold over background); higher = more active; k-Seq, kA / k0A0; sequences stand for … in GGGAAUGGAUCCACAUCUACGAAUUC…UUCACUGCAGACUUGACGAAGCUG
This sample holds only a part of the variants without activity.
Labels assigned by self-aminoacylation range: I: < 1; II: ≥ 1 and < 2; III: ≥ 2

[
  {
    "macromolecule sequence": "AUUCACCUAGUGCAUCGGGUG [Fam2.2 aminoacylation ribozyme variant]",
    "system name": "biotinyl-Val-oxazolone",
    "class name": "II"
  },
  {
    "macromolecule sequence": "AUUACCCUGUUCAUCGAGUGA [Fam2.1 aminoacylation ribozyme variant]",
    "system name": "biotinyl-Val-oxazolone",
    "class name": "III"
  },
  {
    "macromolecule sequence": "AUUCAUCUAGGUCAUCGGGAG [Fam2.2 aminoacylation ribozyme variant]",
    "system name": "biotinyl-Val-oxazolone",
    "class name": "II"
  },
  {
    "macromolecule sequence": "UCACACUUCAAGCAACCGGUC [Fam1B.1 aminoacylation ribozyme variant]",
    "system name": "biotinyl-Val-oxazolone",
    "class name": "II"
  },
  {
    "macromolecule sequence": "CCACACUUCUAGCAAUCGGAC [Fam1B.1 aminoacylation ribozyme variant]",
    "system name": "biotinyl-Val-oxazolone",
    "class name": "I"
  },
  {
    "macromolecule sequence": "CUACUUCAAAAAAUCGGUCAG [Fam1A.1 aminoacylation ribozyme variant]",
    "system name": "biotinyl-Val-oxazolone",
    "class name": "I"
  },
  {
    "macromolecule sequence": "GCACACUUCAGGCAAUCGGUC [Fam1B.1 aminoacylation ribozyme variant]",
    "system name": "biotinyl-Val-oxazolone",
    "class name": "III"
  },
  {
    "macromolecule sequence": "CCACACUUCAAGCAAUCUGCC [Fam1B.1 aminoacylation ribozyme variant]",
    "system name": "biotinyl-Val-oxazolone",
    "class name": "II"
  },
  {
    "macromolecule sequence": "AUUACCCUGGUCAGCGCGUGA [Fam2.1 aminoacylation ribozyme variant]",
    "system name": "biotinyl-Val-oxazolone",
    "class name": "III"
  }
]
